- measurement-notes: In vitro cytotoxicity, MTT assay, Vero cells
- Format: cell-based
- assay-setup: African green monkey, 5 to 80 µM, read-out: CC50 Vero cell
Item-by-item account of CC50 at 48 h

Which CC50 at 48 h value is on record for O=c1c2ccccc2oc2c(O)cccc12 [Compound 3, 4-hydroxyxanthone] ? 48.1 µM

Which CC50 at 48 h value is on record for O=c1c2ccc(O)cc2oc2cccc(O)c12 [Compound 8, 1,6-dihydroxyxanthone] ? > 80 µM

Which CC50 at 48 h value is on record for O=c1c2ccccc2oc2ccc(O)cc12 [Compound 12, 2-hydroxyxanthone] ? > 80 µM

* * *

Item-by-item account of CC50 at 48 h
- measurement-notes: In vitro cytotoxicity, MTT assay, Vero cells
- Type: cell-based
- assay-setup: African green monkey, Vero cells, 5 to 80 µM, read-out: CC50 Vero cell

Observe how each entry below is paired with its result.
COc1ccc2c(=O)c3cccc(O)c3oc2c1O [Compound 2, 4,5-dihydroxy-3-methoxyxanthone]	> 80 µM
COc1ccc2c(=O)c3c(O)cccc3oc2c1O [Compound 13, 1,5-dihydroxy-6-methoxyxanthone]	> 80 µM

Now let's try a different one.
Which CC50 at 48 h value is on record for COc1cccc2c1C(=O)c1c(O)c3c(c(O)c1C2=O)C[C@@](O)(C(=O)CO)C[C@@H]3O[C@H]1C[C@H](N)[C@H](O)[C@H](C)O1 [Doxorubicin, reference compound] ? 1.46 µM
